target: HLA-B0702 (human); test: competition vs 125I probe peptide, purified HLA; settings: remark: other sources report otherwise
observation type: pKi
Scale explanation: pKi corresponds to minus log10 of a concentration expressed in moles per litre.

Guide cases for pKi, answers given:
{"binder": "ALAHGVRVL (modifications not checked)", "pKi": 5.10}
{"binder": "APTLWARMIL (modifications not checked)", "pKi": 9.00}
{"binder": "APLGGAARAL (modifications not checked)", "pKi": 9.00}

Prompt: Could you tell me which pKi is on file for LPRRGPRLGV (modifications not checked) ?
Response: 8.52

Prompt: Could you tell me which pKi is on file for QPRGRRQPI (modifications not checked) ?
Response: 9.00
